tested on: carrageenin-induced edema in the hind paw of a rat; assay: Carrageenin Assay (carrageenin-induced edema, hind paw); assay type: in vivo, rat (male, Long Evans strain); conditions: Rattus norvegicus; 200 mg/kg oral, 1 h before carrageenin; edema at 3 h; compared to phenylbutazone control values; read-out: % Reduction of Edema
recorded-endpoint: inhibition in vivo at 200 mg/kg (%)
Field format: number, assumed %, no unit text.

>  <molecule>
COc1ccc(-c2cnnc(SC)n2)cc1OC [Example 33]

>  <inhibition in vivo at 200 mg/kg (%)>
32

$$$$
>  <molecule>
COc1nncc(C)n1 [Example 17, 3-methoxy-5-methyl-1,2,4-triazine]

>  <inhibition in vivo at 200 mg/kg (%)>
8

$$$$

Next molecule, please.
Ask: For the molecule shown here, C=CCOc1nnc(C)c(C)n1 [Example 11, 3-allyloxy-5,6-dimethyl-1,2,4-triazine] , give the reported inhibition in vivo at 200 mg/kg.
Result: 63

====

system: phenylquinone writhing in mice; test: Phenylquinone Writhing Assay (analgesia); assay type: in vivo, mouse (Carworth CF1 male mice); settings: Mus musculus, po, 0.25 h, 100 mg/kg oral, 15 Min.; read-out: Phenylquinone Writhing Assay (% Control), percent analgesia
recorded-endpoint: responders at 100 mg/kg (%)
Lab book: enter the figure in %, no units written.

>  <molecule>
COc1ccc(-c2nnc(SC)nc2-c2ccc(OC)cc2)cc1 [Example 93]

>  <measurement-unit>
%

>  <responders at 100 mg/kg>
20

$$$$

Ask: What value of responders at 100 mg/kg has been reported for the following molecule? CSc1nncc(-c2ccc(Cl)s2)n1 [Example 70]
Result: 10

Ask: Next: CSc1nncc(C(c2ccccc2)c2ccccc2)n1 [Example 87]
Result: 10

Ask: Moving on to the next molecule: CSc1nncc(C23CC4CC(CC(C4)C2)C3)n1 [Example 34]
Result: 30

====

Each entry below carries its recorded inhibition in vivo at 200 mg/kg.
test system: carrageenin-induced edema in the hind paw of a rat; assay: Carrageenin Assay (carrageenin-induced edema, hind paw); format: in vivo, rat (male, Long Evans strain); conditions: Rattus norvegicus; 200 mg/kg oral, 1 h before carrageenin; edema at 3 h; compared to phenylbutazone control values; read-out: % Reduction of Edema

As a guide, the following entries are already answered.
>  <smiles-str>
COc1ccc(-c2nnc(N(C)CCO)nc2-c2ccc(OC)cc2)cc1

>  <inhibition in vivo at 200 mg/kg>
67%

$$$$
>  <smiles-str>
CSc1nncc(-c2c(C)cc(C)cc2C)n1

>  <inhibition in vivo at 200 mg/kg>
7%

$$$$

Ask: What inhibition in vivo at 200 mg/kg appears in the records for this compound with carrageenin-induced edema in the hind paw of a rat? CSc1nncc(-c2cccc(C(F)(F)F)c2)n1
Result: 51%

====

test system: carrageenin-induced edema in the hind paw of a rat; experiment: Carrageenin Assay (carrageenin-induced edema, hind paw); assay type: in vivo, rat (male, Long Evans strain); conditions: Rattus norvegicus; 200 mg/kg oral, 1 h before carrageenin; edema at 3 h; compared to phenylbutazone control values; read-out: % Reduction of Edema
recorded-endpoint: inhibition in vivo at 200 mg/kg (%)
Expressed in %, but write only the number.

# count of solved cases: 3
>  <smiles-str>
OCCNc1nncc(-c2ccccc2)n1

>  <target-under-test>
carrageenin-induced edema in the hind paw of a rat

>  <measurement-unit>
%

>  <recorded-number>
43

$$$$
>  <smiles-str>
CSc1nncc(-c2ccc(Br)cc2)n1

>  <target-under-test>
carrageenin-induced edema in the hind paw of a rat

>  <measurement-unit>
%

>  <recorded-number>
20

$$$$
>  <smiles-str>
COc1nncc(-c2ccccc2)n1

>  <target-under-test>
carrageenin-induced edema in the hind paw of a rat

>  <measurement-unit>
%

>  <recorded-number>
86

$$$$

Proceeding to the next compound to report its inhibition in vivo at 200 mg/kg.
Ask: What value of inhibition in vivo at 200 mg/kg has been recorded for this entry: CCCOc1nncc(-c2ccccc2)n1
Result: 51
